Data credit: patent US20250250357A1

- ASSAYED SYSTEM: T1, human MSLN-R2-his protein (human, UniProt Q13421 391-486)
- T1 construct: Self-made in HEK293E cells; also called human MSLN-R2 protein; hMSLN-R2-his; not shown: His tag
- T1 sequence (Q13421 other isoform, or with tags, fused parts or gaps): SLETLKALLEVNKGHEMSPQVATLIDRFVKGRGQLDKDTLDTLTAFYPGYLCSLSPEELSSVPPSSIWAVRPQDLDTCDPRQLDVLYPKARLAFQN
- METHOD: ELISA on coated antigen, antibody 0.001 nM
PARAMETER: OD450 (OD450)
Answer format: numeric, OD450 implied, no suffix.

| BINDER | RECORDED RESULT |
| --- | --- |
| S009-F2.47.1 (antibody, human IgG1, kappa, V domains shown, Human-murine chimeric antibody: murine VH/VL on human IgG1 heavy and kappa light constant regions) VH: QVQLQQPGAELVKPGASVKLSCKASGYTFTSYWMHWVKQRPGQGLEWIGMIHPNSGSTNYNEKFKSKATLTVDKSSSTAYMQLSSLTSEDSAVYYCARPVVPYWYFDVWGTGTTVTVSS VL: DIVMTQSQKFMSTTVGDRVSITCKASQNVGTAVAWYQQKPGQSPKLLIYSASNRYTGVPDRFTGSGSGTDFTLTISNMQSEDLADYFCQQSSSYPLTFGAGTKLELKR | 0.05 |

Give the value of OD450 reported for the following: S009-F2.13.3 (antibody, human IgG1, kappa, V domains shown, Human-murine chimeric antibody: murine VH/VL on human IgG1 heavy and kappa light constant regions) VH: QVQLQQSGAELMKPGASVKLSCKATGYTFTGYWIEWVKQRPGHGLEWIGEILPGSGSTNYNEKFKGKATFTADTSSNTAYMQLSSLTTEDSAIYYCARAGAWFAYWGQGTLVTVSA VL: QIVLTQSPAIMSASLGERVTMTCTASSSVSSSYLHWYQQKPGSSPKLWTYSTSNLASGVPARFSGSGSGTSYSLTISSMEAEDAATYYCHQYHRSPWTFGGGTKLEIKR 0.05

Give the value of OD450 reported for the following: S009-F2.16.10 (antibody, human IgG1, kappa, V domains shown, Human-murine chimeric antibody: murine VH/VL on human IgG1 heavy and kappa light constant regions) VH: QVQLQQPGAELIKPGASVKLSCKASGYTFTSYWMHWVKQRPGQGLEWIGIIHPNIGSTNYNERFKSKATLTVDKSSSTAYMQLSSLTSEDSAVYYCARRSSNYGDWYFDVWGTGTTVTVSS VL: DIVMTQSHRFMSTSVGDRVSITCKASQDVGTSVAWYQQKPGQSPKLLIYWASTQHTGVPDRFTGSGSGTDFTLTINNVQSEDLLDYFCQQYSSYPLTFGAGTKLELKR 0.05

Give the value of OD450 reported for the following: S009-F2.58.8 (antibody, human IgG1, kappa, V domains shown, Human-murine chimeric antibody: murine VH/VL on human IgG1 heavy and kappa light constant regions) VH: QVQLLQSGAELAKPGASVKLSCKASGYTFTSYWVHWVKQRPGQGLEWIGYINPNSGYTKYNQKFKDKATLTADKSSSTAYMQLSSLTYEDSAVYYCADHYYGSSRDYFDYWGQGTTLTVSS VL: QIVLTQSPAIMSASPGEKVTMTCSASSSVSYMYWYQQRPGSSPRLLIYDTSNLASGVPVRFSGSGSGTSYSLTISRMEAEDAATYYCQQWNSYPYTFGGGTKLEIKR 0.06
